Values compiled from patent US6541463B1.

molecular target: androgen receptor (Rattus norvegicus); construct: from tissue; host or cells: ventral prostate cytosol of gonadectomized male Sprague-Dawley rats; experiment: Androgen receptor (AR) assay: inhibition of [3H]R1881 binding, prostate cytosol; conditions: E^−8
Sequence (P15207 whole entry S389L): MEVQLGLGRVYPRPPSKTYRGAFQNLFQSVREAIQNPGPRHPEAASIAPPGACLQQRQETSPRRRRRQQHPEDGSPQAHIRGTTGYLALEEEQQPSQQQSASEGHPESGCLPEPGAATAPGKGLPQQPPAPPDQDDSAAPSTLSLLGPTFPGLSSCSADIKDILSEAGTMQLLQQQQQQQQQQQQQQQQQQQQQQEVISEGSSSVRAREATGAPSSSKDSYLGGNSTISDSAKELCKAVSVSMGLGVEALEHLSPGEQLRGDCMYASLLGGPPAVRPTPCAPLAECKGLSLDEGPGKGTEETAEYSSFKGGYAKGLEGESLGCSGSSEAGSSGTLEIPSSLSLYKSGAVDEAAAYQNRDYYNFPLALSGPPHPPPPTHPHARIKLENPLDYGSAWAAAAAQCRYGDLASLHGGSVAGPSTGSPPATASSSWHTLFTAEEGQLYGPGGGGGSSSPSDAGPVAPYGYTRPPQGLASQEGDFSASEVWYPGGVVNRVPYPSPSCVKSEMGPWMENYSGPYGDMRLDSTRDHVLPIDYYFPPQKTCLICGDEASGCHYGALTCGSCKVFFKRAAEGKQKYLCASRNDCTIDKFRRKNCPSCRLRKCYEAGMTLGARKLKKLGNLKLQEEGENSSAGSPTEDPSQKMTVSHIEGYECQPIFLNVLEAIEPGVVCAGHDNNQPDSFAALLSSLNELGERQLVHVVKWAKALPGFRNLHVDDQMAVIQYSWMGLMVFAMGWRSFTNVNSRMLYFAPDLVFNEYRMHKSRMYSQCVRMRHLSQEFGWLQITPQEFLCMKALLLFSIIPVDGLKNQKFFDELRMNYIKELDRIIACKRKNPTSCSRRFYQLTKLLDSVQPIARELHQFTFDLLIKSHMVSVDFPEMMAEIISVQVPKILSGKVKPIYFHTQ
Recorded % Inhibition Androgen Receptor for the following molecules

[
  {
    "molecule": "CC(=O)[C@@]1(OC(=O)CCCCF)CCC2C3C=C(C)C4=CC(=O)CC[C@]4(C)C3CC[C@@]21C (stereo partly shown)",
    "% Inhibition Androgen Receptor": "1%"
  },
  {
    "molecule": "CC(=O)O[C@]1(C(=O)N(C)C)CCC2C3C=C(C)C4=CC(=O)CC[C@]4(C)C3CC[C@@]21C (stereo partly shown)",
    "% Inhibition Androgen Receptor": "1%"
  },
  {
    "molecule": "COC(=O)CCCC(=O)O[C@]1(C(C)=O)CC[C@H]2[C@@H]3C=C(C)C4=CC(=O)CC[C@]4(C)[C@H]3CC[C@@]21C",
    "% Inhibition Androgen Receptor": "0%"
  }
]

# ---- query molecule ----
Quickly give me recorded % Inhibition Androgen Receptor for COc1ccc(CC(=O)O[C@]2(C(C)=O)CCC3C4C=C(C)C5=CC(=O)C=C[C@]5(C)C4CC[C@@]32C)cc1 (stereo partly shown) 0%
